# Test system: Haemophilus influenzae ATCC 49766
# PROTOCOL_DESCRIPTION: MIC, broth microdilution (CLSI), H. influenzae
# Format: cell-based
# Design: unit not given beside the values
I'd appreciate it if you could supply MIC H. influenzae values for the items below.
In your answer, state the number alone without any accompanying words.

Which MIC H. influenzae value is on record for "Cc1cc(NCc2cc(F)cc(C(F)(F)F)c2)nc2nc([N+](=O)[O-])nc([N+](=O)[O-])c12" ?
64

I would be grateful if you could share the reported MIC H. influenzae for "Cc1c(C2CCCC2)c(NCc2ccc(F)c(F)c2)nc2nc(N)nc(N)c12" .
16

Form field: reported MIC H. influenzae of "Cc1cc(NCc2ccc(Cl)c(C(F)(F)F)c2)nc2nc(N)nc(N)c12"
16

State the recorded MIC H. influenzae for this entry: "Cc1cc(NCc2ccc3c(c2)OCO3)nc2nc(N)nc(N)c12"
8

Consider the compound shown here: "COc1cc(CN(C)c2cc(C)c3c(N)nc(N)nc3n2)cc(OC)c1" What is its recorded MIC H. influenzae?
32

Recorded MIC H. influenzae of "Cc1cc(N(C)C2CCCCC2)nc2nc(N)nc(N)c12" , please.
51

I'd like to know its MIC H. influenzae. The compound in question is "Cc1c(Cc2ccccc2)c(NCc2ccc(F)c(F)c2)nc2nc(N)nc(N)c12"
64

Look up MIC H. influenzae for this compound: "COc1ccc(CN(C)c2cc(C)c3c(N)nc(N)nc3n2)cc1OC"
16

MIC H. influenzae lookup needed for "Cc1cc(NCc2cc(C(F)(F)F)ccc2F)nc2nc(N)nc(N)c12" , thanks.
32

Fill blank: measured MIC H. influenzae of the compound "COc1cc(CN(C)c2cc(C)c3c(N)nc(N)nc3n2)cc(OC)c1OC" is ____.
64

Item under review: "COc1cc(CN(C)c2nc3nc(N)nc(N)c3c(C)c2C2CCCC2)cc(OC)c1" . Reported MIC H. influenzae?
4

Please look up its MIC H. influenzae: "Nc1nc(N)c2c3c(c(NCc4ccc(F)c(F)c4)nc2n1)CCCC3"
64

Which value of MIC H. influenzae has been reported for "CN(c1nc2nc(N)nc(N)c2c2c1CCCC2)C1CCCCC1" in the records?
64

Field request: MIC H. influenzae | item: "Cc1cc(NCc2cccc(C(F)(F)F)c2F)nc2nc(N)nc(N)c12"
32

Quick one: MIC H. influenzae for "Cc1cc(NCc2cc(C(F)(F)F)cc(C(F)(F)F)c2)nc2nc(N)nc(N)c12" ?
16

I'd like to know its MIC H. influenzae. The compound in question is "COc1cc(CN(C)c2nc3nc(N)nc(N)c3c3c2CCCC3)cc(OC)c1"
16

Entry "Cc1cc(NCc2ccc(C(F)(F)F)cc2F)nc2nc(N)nc(N)c12" : reported MIC H. influenzae = ?
16

Looking for the measured MIC H. influenzae of "Cc1cc(NCc2ccc(F)cc2C(F)(F)F)nc2nc(N)nc(N)c12" , can you help?
16

----------
Provide the reported CC50 of each item.
# PROTOCOL_DESCRIPTION: Acute toxicity, Alamar blue cell viability, NIH 3T3
# Format: cell-based
# CONDITION: mouse
Answer with a number only, understood to be in µM.

Which CC50 reading was recorded for the molecule Cc1cc(Nc2ccc3c(c2)OCCCO3)nc2nc(N)nc(N)c12 [III-p] ?
15.6

For the molecule Cc1cc(NCc2ccc(Cl)c(C(F)(F)F)c2)nc2nc(N)nc(N)c12 [III-f] , what CC50 is on record?
8.32

For the molecule shown here, CCCCc1c(NCc2ccc(F)c(F)c2)nc2nc(N)nc(N)c2c1C [II-d] , give the reported CC50.
5.16

State the recorded CC50 for this entry: Cc1cc(N(C)C2CCCCC2)nc2nc(N)nc(N)c12 [IV-d]
12.8

Recorded CC50 of Nc1nc(N)c2c3c(c(NCc4ccc(F)c(F)c4)nc2n1)CCCC3 [VII-a] , please.
1.24

Please look up its CC50: COc1cc(CN(C)c2nc3nc(N)nc(N)c3c(C)c2Cc2ccccc2)cc(OC)c1 [II-a]
5.57

I would be grateful if you could share the reported CC50 for Cc1cc(NCc2cc(C(F)(F)F)cc(C(F)(F)F)c2)nc2nc(N)nc(N)c12 [III-d] .
7.72

What value of measured CC50 is listed for Cc1cc(NCc2cc(F)cc(C(F)(F)F)c2)nc2nc(N)nc(N)c12 [III-b] ?
8.34

Any idea what its CC50 is? The molecule is Cc1cc(NCc2ccc(C(F)(F)F)cc2)nc2nc(N)nc(N)c12 [III-c]
11.2

Please report the recorded CC50 for COc1cc(CN(C)c2nc3nc(N)nc(N)c3c(C)c2C2CCCC2)cc(OC)c1 [II-h] .
3.26

----------
# PROTOCOL_DESCRIPTION: Acute toxicity, Alamar blue cell viability, NIH 3T3
# Assay type: cell-based
# CONDITION: mouse; NIH 3T3 cells; Alamar blue; 50% inhibition of cell growth; read-out: Acute Tox LC50 μM/ NIH-3T3
Record form. Attribute: CC50. Fill in for each entry.

Query: CC50; subject: "Cc1cc(NCc2cc(F)c(F)c(F)c2)nc2nc([N+](=O)[O-])nc([N+](=O)[O-])c12"
22.2 µM

Find the recorded CC50 belonging to "Cc1cc(NCc2cc(F)cc(C(F)(F)F)c2)nc2nc([N+](=O)[O-])nc([N+](=O)[O-])c12" and report it.
12.1 µM

----------
# PROTOCOL_DESCRIPTION: Acute toxicity, Alamar blue cell viability, HepG2
# Type: cell-based
# CONDITION: human
CC50 strictly under 20 µM means condition met; at 20 µM or over means condition not met.

Threshold test, CC50 < 20 µM: "Cc1cc(NCc2ccc(Cl)c(C(F)(F)F)c2)nc2nc(N)nc(N)c12"
condition met

Strictly below 20 µM in CC50? "COc1cc(CN(C)c2cc(C)c3c(N)nc(N)nc3n2)cc(OC)c1"
condition not met

Quick check: CC50 of "Cc1cc(NCc2ccc(F)cc2)nc2nc(N)nc(N)c12" under 20 µM?
condition not met

Determine if "Cc1c(C2CCCC2)c(NCc2ccc(F)c(F)c2)nc2nc(N)nc(N)c12" shows CC50 strictly lower than 20 µM.
condition met

Threshold test, CC50 < 20 µM: "Cc1cc(N2Cc3ccccc3C2)nc2nc(N)nc(N)c12"
condition met

Consider the compound "Cc1cc(N2CCCc3ccccc32)nc2nc(N)nc(N)c12" . Is its CC50 strictly less than 20 µM?
condition not met

Hi there! Is CC50 for "Cc1cc(NCc2cc(F)cc(C(F)(F)F)c2)nc2nc(N)nc(N)c12" below 20 µM, do you know?
condition not met

Is 20 µM strictly greater than the compound's reported CC50? compound: "COc1cc(CN(C)c2nc3nc(N)nc(N)c3c(C)c2Cc2ccccc2)cc(OC)c1"
condition met

Confirm or reject: CC50 of "CN(c1nc2nc(N)nc(N)c2c2c1CCCC2)C1CCCCC1" lies strictly below 20 µM
condition met

----------
# EXPERIMENTAL_TARGET: DNA ligase enzyme (NAD+-dependent DNA ligase) (Streptococcus pneumoniae serotype 4, UniProt Q97QT2)
# Sequence (Q97QT2 whole entry): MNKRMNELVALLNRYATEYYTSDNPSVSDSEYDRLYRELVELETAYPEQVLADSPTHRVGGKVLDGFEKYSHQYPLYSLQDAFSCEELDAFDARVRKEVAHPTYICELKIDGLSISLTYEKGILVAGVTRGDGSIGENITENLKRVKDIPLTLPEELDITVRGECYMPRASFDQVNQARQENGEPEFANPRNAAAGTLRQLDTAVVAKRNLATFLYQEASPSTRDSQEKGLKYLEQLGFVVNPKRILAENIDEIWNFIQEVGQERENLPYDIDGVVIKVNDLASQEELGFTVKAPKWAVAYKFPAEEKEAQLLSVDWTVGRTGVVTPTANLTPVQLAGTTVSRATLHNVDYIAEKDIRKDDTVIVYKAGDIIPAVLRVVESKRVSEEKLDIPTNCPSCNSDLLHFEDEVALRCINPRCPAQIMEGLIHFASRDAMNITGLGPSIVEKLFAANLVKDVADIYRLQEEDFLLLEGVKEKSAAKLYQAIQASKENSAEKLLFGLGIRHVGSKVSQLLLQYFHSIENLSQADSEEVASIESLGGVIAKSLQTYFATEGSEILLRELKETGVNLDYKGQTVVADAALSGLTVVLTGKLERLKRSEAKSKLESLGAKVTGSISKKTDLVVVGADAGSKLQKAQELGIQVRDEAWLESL
# PROTOCOL_DESCRIPTION: DNA ligase AMP release assay (luciferase readout)
# CONDITION: purified enzyme from S. pneumoniae
RESULT_TYPE: IC50
I'd appreciate it if you wrote the number followed by its unit.

Look at this molecule and give its reported IC50. Cc1cc(N(C)C2CCCCC2)nc2nc(N)nc(N)c12 [IV-d]
15.2 µM

Entry under review: Cc1c(N(C)C2CCCCC2)nc2nc(N)nc(N)c2c1C [II-e] . Reported IC50?
79.1 µM

Find the recorded IC50 belonging to Cc1cc(Nc2ccc3c(c2)OCCCO3)nc2nc(N)nc(N)c12 [III-p] and report it.
11.4 µM

Can you share its IC50? I mean this molecule: Cc1c(Cc2ccccc2)c(N(C)C2CCCCC2)nc2nc(N)nc(N)c12 [II-c]
11.3 µM

Which value of IC50 has been reported for Nc1nc(N)c2c3c(c(NCc4ccc(F)c(F)c4)nc2n1)CCCC3 [VII-a] in the records?
17.3 µM

Given CCCc1cc(N(C)C2CCCCC2)nc2nc(N)nc(N)c12 [IV-e] , state its recorded IC50.
80.6 µM

So what's the measured IC50 for this one? CN(c1nc2nc(N)nc(N)c2c2c1CCCC2)C1CCCCC1 [VII-b]
5.94 µM

Any idea what IC50 was measured for Cc1cc(N2Cc3ccccc3C2)nc2nc(N)nc(N)c12 [V-b] ?
7.35 µM

Quick one: IC50 of Cc1c(Cc2ccccc2)c(NCc2ccc(F)c(F)c2)nc2nc(N)nc(N)c12 [II-b] ?
12.6 µM

What does the record list as IC50 for COc1cc(CN(C)c2cc(C)c3c(N)nc(N)nc3n2)cc(OC)c1OC [IV-a] ?
15.2 µM

Source: patent US20070082920A1
